B1: LINE1-full (parent)
chain: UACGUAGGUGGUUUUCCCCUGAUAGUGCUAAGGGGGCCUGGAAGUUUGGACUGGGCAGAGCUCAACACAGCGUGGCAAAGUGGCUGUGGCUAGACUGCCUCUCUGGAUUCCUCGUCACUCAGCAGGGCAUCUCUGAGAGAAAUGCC

variants of: B1; experiment: self-cleavage, relative activity (ratio to wild type); higher = more cleavage; in vitro, sequencing; the parent is a self-cleaving ribozyme
Classification field: enter met for self-cleavage values not below 0.8, not met for values below it.

Task: Is the recorded value of self-cleavage equal to or greater than 0.8 for this variant? U46G G89A
Output: not met

Task: Also check U26A U87G
Output: not met

Task: Also check U87G U108C
Output: not met

Task: Also check U12C G48A
Output: met

Task: Also check C99U A138G
Output: met

Task: Also check U91C C146U
Output: not met

Task: Also check U96A A121C
Output: not met

Task: Also check U62A A136G
Output: not met

Task: Also check U73A U87A
Output: not met

Task: Also check U5A U119A
Output: met

Task: Also check U1C U130A
Output: met

Task: Also check C61U U73A
Output: not met

Task: Also check C111U U143C
Output: met

Task: Also check U20A A142G
Output: met

Task: Also check U20A A136U
Output: met

Task: Also check G7U U46C
Output: not met

Task: Also check U12C G41U
Output: met

Task: Also check A2G A67U
Output: not met

Task: Also check C19A A142G
Output: met

Task: Also check C101A U134G
Output: met

Task: Also check C90G A142G
Output: not met

Task: Also check A31C A59G
Output: not met

Task: Also check A22G U143A
Output: met

Task: Also check G7U A140U
Output: met

Task: Also check U15A A64G
Output: not met

Task: Also check G40A U96A
Output: not met

Task: Also check A78G U108A
Output: met

Task: Also check U12G G58A
Output: not met

Task: Also check U46G U112G
Output: not met

Task: Also check U46C U73C
Output: met

Task: Also check C76U A79G
Output: met

Task: Also check G54U
Output: not met

Task: Also check A43G G93U
Output: not met

Task: Also check A30C U81C
Output: met

Task: Also check U13C C131U
Output: met

Task: Also check U9C G83U
Output: met

Task: Also check U9A U104A
Output: met

This collection of values is drawn from the RNAGym collection of RNA variant scans (doi:10.7554/elife.90254).
